test system: enzyme of the present invention (KDNase); assay: Substrate specificity: cleavage of ketosidic linkage, detected by thin layer chromatography; format: biochemical, Sphingobacterium mOL12-4s; set-up: key: Those in which KDN, Neu5Ac, or Neu5Gc was liberated are indicated by "+"; those in which KDN, Neu5Ac, or Neu5Gc was not liberated at all are indicated by "-"; conditions: substrate corresponding to 5 μg KDN, Neu5Ac or Neu5Gc; enzyme 80 milliunits; 25° C., 20 hours; pH 6.0, 0.1M NaCl
test.readout: Presence or absence of cleavage

INSERT INTO measurements (compound, result) VALUES
  ('CC(=O)NC(CO)C(OC1OC(CO)C(O)C(O)C1O)C(O)C(O)COC1(C(=O)O)CC(O)C(NC(C)=O)C(C(O)C(O)CO)O1 (stereo not drawn)', '-'),
  ('O=C(CO)NC1C(O)CC(OC(CO)C(O)C2OC(O)(C(=O)O)CC(O)C2NC(=O)CO)(C(=O)O)OC1C(O)C(O)CO (stereo not drawn)', '-'),
  ('O=C(O)C1(O)CC(O)C(O)C(C(O)C(CO)OC2(C(=O)O)CC(O)C(O)C(C(O)C(O)CO)O2)O1 (stereo not drawn)', '+'),
  ('CC(=O)NC1C(O)CC(Oc2ccc3c(C)cc(=O)oc3c2)(C(=O)O)OC1C(O)C(O)CO (stereo not drawn)', '-'),
  ('CC(=O)NC1C(O)CC(OC(CO)C(O)C2OC(O)(C(=O)O)CC(O)C2NC(C)=O)(C(=O)O)OC1C(O)C(O)CO (stereo not drawn)', '-');

--- query ---
Measured Presence or absence of cleavage of Cc1cc(=O)oc2cc(OC3(C(=O)O)C[C@H](O)[C@@H](O)[C@H]([C@H](O)[C@H](O)CO)O3)ccc12 (stereo partly drawn) : +

Cited source: patent US5834288A
